target: Aurora B/INCENP (Homo sapiens, UniProt Q96GD4); assay: Determination of inhibition of AIK: Aurora B/INCENP direct fluorescence polarization (IMAP) assay; settings: 10 uM ATP, 0.8 nM Aurora B/INCENP; values given as bins; read-out: IC50 of Exemplified Compounds Against AIK B
Sequence (Q96GD4 whole entry): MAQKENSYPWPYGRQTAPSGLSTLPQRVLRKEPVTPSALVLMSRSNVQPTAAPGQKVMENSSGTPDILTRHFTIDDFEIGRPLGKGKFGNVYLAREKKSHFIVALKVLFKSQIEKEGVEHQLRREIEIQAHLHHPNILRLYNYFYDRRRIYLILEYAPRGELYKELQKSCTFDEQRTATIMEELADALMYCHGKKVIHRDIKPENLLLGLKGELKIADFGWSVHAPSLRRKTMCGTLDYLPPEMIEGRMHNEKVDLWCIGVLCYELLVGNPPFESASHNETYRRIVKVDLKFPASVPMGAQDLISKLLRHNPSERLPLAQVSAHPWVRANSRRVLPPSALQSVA
Sequence (Q9NQS7 whole entry partner): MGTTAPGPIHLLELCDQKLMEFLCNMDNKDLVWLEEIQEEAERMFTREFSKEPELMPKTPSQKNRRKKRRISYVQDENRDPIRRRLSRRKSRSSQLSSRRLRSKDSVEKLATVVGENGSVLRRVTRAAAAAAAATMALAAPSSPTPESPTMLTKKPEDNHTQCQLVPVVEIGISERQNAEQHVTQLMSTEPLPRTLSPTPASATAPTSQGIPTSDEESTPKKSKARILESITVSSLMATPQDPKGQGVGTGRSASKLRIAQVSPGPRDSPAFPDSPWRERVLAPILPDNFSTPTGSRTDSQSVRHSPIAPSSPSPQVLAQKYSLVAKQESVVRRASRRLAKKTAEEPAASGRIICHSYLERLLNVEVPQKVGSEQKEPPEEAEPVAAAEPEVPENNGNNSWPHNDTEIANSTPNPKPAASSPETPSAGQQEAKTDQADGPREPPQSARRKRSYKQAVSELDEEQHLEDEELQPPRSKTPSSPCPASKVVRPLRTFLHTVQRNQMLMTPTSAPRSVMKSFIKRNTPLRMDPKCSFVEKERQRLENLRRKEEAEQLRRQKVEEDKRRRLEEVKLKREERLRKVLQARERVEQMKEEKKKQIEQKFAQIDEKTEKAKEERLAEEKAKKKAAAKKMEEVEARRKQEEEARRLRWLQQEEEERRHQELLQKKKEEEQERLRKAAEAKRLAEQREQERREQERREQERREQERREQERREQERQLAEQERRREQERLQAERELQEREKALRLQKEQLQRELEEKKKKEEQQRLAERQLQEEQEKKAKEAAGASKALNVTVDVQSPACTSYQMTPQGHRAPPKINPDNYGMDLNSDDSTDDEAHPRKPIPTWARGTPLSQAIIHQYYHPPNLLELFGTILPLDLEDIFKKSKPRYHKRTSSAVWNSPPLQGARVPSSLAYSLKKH
pIC50: −log10 of the molar value.
For each record, write down the corresponding pIC50.

Before answering, review these 2 worked examples.
COMPOUND	pIC50
CCS(=O)(=O)c1cccc(-c2cnc(OCCCN(C)C)c3[nH]c4ncc(C)cc4c23)c1 [Compound 52]	7.89 to 8.07
CCS(=O)(=O)c1cccc(-c2cc(C(=O)NCCN(C)C)c(C)c3[nH]c4ncc(C)cc4c23)c1 [Compound 113]	7.89 to 8.07

For every item in the list below, what is its measured pIC50?
1. CN(CCO)CCOc1ccc(-c2cccc(S(=O)(=O)C3CC3)c2)c2c1[nH]c1ncc(Cl)cc12 [Compound 319]
2. CCS(=O)(=O)c1cccc(-c2cc(C(=O)Nc3nccs3)c(C)c3[nH]c4ncc(C)cc4c23)c1 [Compound 106]
3. CCS(=O)(=O)c1cccc(-c2cnc(NC)c3[nH]c4ncc(C)cc4c23)c1 [Compound 74]
4. CCS(=O)(=O)c1cccc(-c2ccc(OCCCO)c3[nH]c4ncc(Cl)cc4c23)c1 [Compound 291]
5. CCS(=O)(=O)c1cccc(-c2ccc(OCCCn3cnnc3)c3[nH]c4ncc(C)cc4c23)c1 [Compound 416]
6. Cc1cnc2[nH]c3c(OCC4CCN(C)CC4)ccc(-c4cccc(S(=O)(=O)N(C)C)c4)c3c2c1 [Compound 181]

### Response
1. > 8.40
2. 8.07 to 8.25
3. > 8.40
4. > 8.40
5. 8.07 to 8.25
6. 7.89 to 8.07

###

biological target: Aurora B/INCENP (Homo sapiens); experiment: Determination of inhibition of AIK: Aurora B/INCENP direct fluorescence polarization (IMAP) assay; details: 10 uM ATP, 0.8 nM Aurora B/INCENP; values given as bins; read-out: IC50 of Exemplified Compounds Against AIK B
For each record, write down the corresponding IC50.

Before answering, review these 8 worked examples.
COMPOUND	IC50
CCS(=O)(=O)c1cccc(-c2ccc(OCCCO)c3[nH]c4ncc(C)cc4c23)c1 [Compound 217]	4 to 5.5 nM
Cc1cnc2[nH]c3c(OCCCNCCO)ccc(-c4cccc(S(=O)(=O)C5CC5)c4)c3c2c1 [Compound 408]	< 4 nM
CCS(=O)(=O)c1cccc(-c2cc(C(=O)N3CCN(C)CC3)cc3[nH]c4ncc(C)cc4c23)c1 [Compound 141]	> 13 nM
CCN(CC)CCOc1ccc(-c2cccc(S(=O)(=O)CC)c2)c2c1[nH]c1ncc(Cl)cc12 [Compound 221]	5.6 to 8.5 nM
CCS(=O)(=O)c1cccc(-c2ccc(OCCOC(=O)[C@H](C)N)c3[nH]c4ncc(C)cc4c23)c1 [Compound 226]	5.6 to 8.5 nM
Cc1cnc2[nH]c3c(OCCCN(C)C)ccc(-c4cccc(NC(=O)C5CC5)c4)c3c2c1 [Compound 195]	> 13 nM
CCS(=O)(=O)c1cccc(-c2cc(C(=O)NC3CCN(CCO)CC3)c(C)c3[nH]c4ncc(C)cc4c23)c1 [Compound 456]	5.6 to 8.5 nM
CCS(=O)(=O)c1cccc(-c2ccc(OCC3CCN(C)CC3)c3[nH]c4ncc(F)cc4c23)c1 [Compound 287]	5.6 to 8.5 nM

For every item in the list below, what is its measured IC50?
1. CCS(=O)(=O)c1cccc(-c2ccc(O[C@H](C)CO)c3[nH]c4ncc(C)cc4c23)c1 [Compound 212]
2. CCS(=O)(=O)c1cccc(-c2cnc(OC[C@H](C)O)c3[nH]c4ncc(C)cc4c23)c1 [Compound 62]
3. CCS(=O)(=O)c1cccc(-c2cnc(NCCCN(C)C)c3[nH]c4ncc(C)cc4c23)c1 [Compound 41]
4. Cc1cnc2[nH]c3c(C)ccc(-c4cccc(S(=O)(=O)N(C)C)c4)c3c2c1 [Compound 16]
5. CCS(=O)(=O)c1cccc(-c2ccc(OCc3ccncc3)c3[nH]c4ncc(C)cc4c23)c1 [Compound 411]
6. Cc1cnc2[nH]c3c(C)ccc(SCc4ccccc4)c3c2c1 [Compound 25]

### Response
5.6 to 8.5 nM
4 to 5.5 nM
5.6 to 8.5 nM
5.6 to 8.5 nM
4 to 5.5 nM
> 13 nM

###

target: Aurora B/INCENP (Homo sapiens); assay: Determination of inhibition of AIK: Aurora B/INCENP direct fluorescence polarization (IMAP) assay; conditions: 10 uM ATP, 0.8 nM Aurora B/INCENP; values given as bins; read-out: IC50 of Exemplified Compounds Against AIK B
For each record, write down the corresponding IC50.

COMPOUND	IC50
CCS(=O)(=O)c1cccc(-c2cc(C(=O)N3CCSC3)c(C)c3[nH]c4ncc(C)cc4c23)c1 [Compound 98]	5.6 to 8.5 nM

For every item in the list below, what is its measured IC50?
1. CCS(=O)(=O)c1cccc(-c2ccc(OCCN3CCOCC3)c3[nH]c4ncc(Cl)cc4c23)c1 [Compound 255]
2. Cc1cnc2[nH]c3c(C)ccc(-c4cccc(C(=O)NC5CC5)c4)c3c2c1 [Compound 20]

### Response
["> 13 nM", "4 to 5.5 nM"]

###

target: Aurora B/INCENP (Homo sapiens, UniProt Q96GD4); assay: Determination of inhibition of AIK: Aurora B/INCENP direct fluorescence polarization (IMAP) assay; conditions: 10 uM ATP, 0.8 nM Aurora B/INCENP; values given as bins; read-out: IC50 of Exemplified Compounds Against AIK B
pIC50: −log10 of the molar value.
MEASUREMENT LABEL: pIC50

Before answering, review these 3 worked examples.
Cc1cnc2[nH]c3c(OCCCN(C)C)ccc(-c4cccc(S(=O)(=O)C5CC5)c4)c3c2c1 8.26 to 8.40
CCS(=O)(=O)c1cccc(-c2cnc(OCCOC(=O)[C@@H](N)C(C)C)c3[nH]c4ncc(C)cc4c23)c1 8.07 to 8.25
CNS(=O)(=O)c1cccc(-c2ccc(C)c3[nH]c4ncc(C)cc4c23)c1 > 8.40

Okay, now this molecule:
### Prompt So what's the measured pIC50 for this one? `CCS(=O)(=O)c1cccc(-c2cc(C(=O)N3CCN(C)CC3)c(C)c3[nH]c4ncc(C)cc4c23)c1`
### Response < 7.89

###

molecular target: Aurora B/INCENP (Homo sapiens); experiment: Determination of inhibition of AIK: Aurora B/INCENP direct fluorescence polarization (IMAP) assay; format: biochemical; conditions: 10 uM ATP, 0.8 nM Aurora B/INCENP; values given as bins; read-out: IC50 of Exemplified Compounds Against AIK B
pIC50: −log10 of the molar value.
MEASUREMENT LABEL: pIC50

Before answering, review these 4 worked examples.
MOLECULE	ASSAYED TARGET	pIC50
CCS(=O)(=O)c1cccc(-c2cc(F)c(OCCN(C)C)c3[nH]c4ncc(C)cc4c23)c1 [Compound 204]	Aurora B/INCENP (Homo sapiens)	7.89 to 8.07
CCS(=O)(=O)c1cccc(-c2cc(C(=O)NCC3CCN(C)CC3)c(C)c3[nH]c4ncc(C)cc4c23)c1 [Compound 114]	Aurora B/INCENP (Homo sapiens)	8.07 to 8.25
CCS(=O)(=O)c1cccc(-c2cnc(OCCCO)c3[nH]c4ncc(C)cc4c23)c1 [Compound 55]	Aurora B/INCENP (Homo sapiens)	> 8.40
CCS(=O)(=O)c1cccc(-c2ccc(OCCn3ccnc3)c3[nH]c4ncc(C)cc4c23)c1 [Compound 333]	Aurora B/INCENP (Homo sapiens)	< 7.89

For every item in the list below, what is its measured pIC50?
1. CCS(=O)(=O)c1cccc(-c2cnc(NCCN(C)C)c3[nH]c4ncc(C)cc4c23)c1 [Compound 42]
2. CCN(CCO)CCCOc1ccc(-c2cccc(S(=O)(=O)CC)c2)c2c1[nH]c1ncc(C)cc12 [Compound 276]

### Response
["7.89 to 8.07", "8.07 to 8.25"]

###

molecular target: Aurora B/INCENP (Homo sapiens); test: Determination of inhibition of AIK: Aurora B/INCENP direct fluorescence polarization (IMAP) assay; conditions: 10 uM ATP, 0.8 nM Aurora B/INCENP; values given as bins; read-out: IC50 of Exemplified Compounds Against AIK B
MEASUREMENT LABEL: IC50

Before answering, review these 5 worked examples.
COMPOUND	ASSAYED TARGET	IC50
CCS(=O)(=O)c1cccc(-c2ccc(OCCCOP(=O)(O)O)c3[nH]c4ncc(C)cc4c23)c1	Aurora B/INCENP (Homo sapiens)	< 4 nM
CCS(=O)(=O)c1cccc(-c2cnc(NCCCN3CCOCC3)c3[nH]c4ncc(C)cc4c23)c1	Aurora B/INCENP (Homo sapiens)	5.6 to 8.5 nM
CCS(=O)(=O)c1cccc(-c2cc(C(=O)N3CCC(N(C)C)C3)cc3[nH]c4ncc(C)cc4c23)c1 (stereo not shown)	Aurora B/INCENP (Homo sapiens)	> 13 nM
CCS(=O)(=O)c1cccc(-c2ccc(OC[C@@H]3CCN(C)C3)c3[nH]c4ncc(C)cc4c23)c1	Aurora B/INCENP (Homo sapiens)	> 13 nM
CCN(CCO)CCCOc1ccc(-c2cccc(S(=O)(=O)CC)c2)c2c1[nH]c1ncc(Cl)cc12	Aurora B/INCENP (Homo sapiens)	< 4 nM

For every item in the list below, what is its measured IC50?
1. CCS(=O)(=O)c1cccc(-c2cc(C(=O)NCCOCCO)c(C)c3[nH]c4ncc(C)cc4c23)c1
2. Cc1cc(Nc2ccc(OCC3CCN(C)CC3)c3[nH]c4ncc(Cl)cc4c23)ccc1N1CCN(C)CC1

### Response
1. 5.6 to 8.5 nM
2. > 13 nM
